Hello, the source for this data is patent US20250340595A1, in case you need it.

Target: T1, Recombinant cynomolgus TfR1, His6-tagged (a.a. 89-760) (cynomolgus, UniProt H9EXL1 89-760 (rhesus entry))
T1 construct: range 89-760; same product number named for FP and SPR; also called Cyno TfR1; Acro Biosystems TFR-C524a
T1 sequence (chain, as listed by the source): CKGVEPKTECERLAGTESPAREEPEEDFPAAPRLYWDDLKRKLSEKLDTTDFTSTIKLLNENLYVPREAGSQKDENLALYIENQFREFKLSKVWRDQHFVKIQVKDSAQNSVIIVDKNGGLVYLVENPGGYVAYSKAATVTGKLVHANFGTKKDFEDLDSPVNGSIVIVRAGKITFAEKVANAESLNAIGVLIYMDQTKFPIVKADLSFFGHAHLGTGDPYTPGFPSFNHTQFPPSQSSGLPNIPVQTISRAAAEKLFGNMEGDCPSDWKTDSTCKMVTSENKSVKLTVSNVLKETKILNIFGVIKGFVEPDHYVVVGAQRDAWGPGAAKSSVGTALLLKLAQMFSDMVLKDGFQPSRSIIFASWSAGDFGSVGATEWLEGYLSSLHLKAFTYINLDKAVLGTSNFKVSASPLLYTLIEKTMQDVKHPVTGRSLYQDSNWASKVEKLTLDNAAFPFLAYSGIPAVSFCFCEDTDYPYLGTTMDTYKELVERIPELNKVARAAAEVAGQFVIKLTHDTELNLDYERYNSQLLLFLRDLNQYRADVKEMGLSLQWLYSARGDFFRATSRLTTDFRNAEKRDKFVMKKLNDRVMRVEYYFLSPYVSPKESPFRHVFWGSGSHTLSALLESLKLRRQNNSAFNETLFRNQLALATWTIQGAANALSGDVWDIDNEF
Assay: SPR, TfR1 on chip
pKd: −log10 of the molar value. Starred links: 1 amine or outer side, 2 acyl side, 3 side chain; linkers in the order of their positions; H or OH if unused. Positions of bridges follow the written chain, without caps; N, C: chain ends. Non-standard residues stand in square brackets, D forms with d. No end group written: not given here. Fluorescein = fluorescein label on the C-terminal Lys side chain; TATB = O=C(C[*:1])N1CN(C(=O)C[*:2])CN(C(=O)C[*:3])C1; 1Nal = N[C@@H](Cc1cccc2ccccc12)C(=O)O; Tle = CC(C)(C)[C@H](N)C(=O)O; Aib = CC(C)(N)C(=O)O; Sar = CNCC(=O)O
Property: pKd; scope: individual binders
measure.name: pKd

[[record]]
binder = "ACSPDAHLGCIS[1Nal]CA (linker 2-10-14 via TATB) [BCY16029]"
measure_name = "pKd"
observed_result = 5.26

[[record]]
binder = "ACSPDAHLGCISYCPHP-NH2 (linker 2-10-14 via TATB (inferred)) [BCY17115]"
measure_name = "pKd"
observed_result = 5.91

[[record]]
binder = "ACPXDAHLGCISYCA (3 Cys on TATB; core as printed CP[Aib]DAHLGCISYC) [BCY16550]"
measure_name = "pKd"
observed_result = 6.17

[[record]]
binder = "NWNCPXDAYLGCXSYC (3 Cys on TATB; N-terminal acetyl (Ac); core as printed CP[HyP]DAYLGC[tBuGly]SYC) [BCY17993]"
measure_name = "pKd"
observed_result = 6.63

[[record]]
binder = "ACP[Aib]DAHLGC[Tle]SYCA (linker 2-10-14 via TATB) [BCY16962]"
measure_name = "pKd"
observed_result = 6.22

[[record]]
binder = "NWNCSPDAHLGCISYC (3 Cys on TATB; N-terminal acetyl (Ac); [NMeTrp] in N-terminal extension) [BCY18036]"
measure_name = "pKd"
observed_result = 5.14

[[record]]
binder = "ACP[Aib]DAYLGC[Tle]SYCA (linker 2-10-14 via TATB) [BCY16963]"
measure_name = "pKd"
observed_result = 6.30

[[record]]
binder = "NEVCSPDAHLGCISYCA (linker 4-12-16 via TATB (inferred)) [BCY17112]"
measure_name = "pKd"
observed_result = 5.58

[[record]]
binder = "ACSPAAHLGCISYCA[Sar][Sar][Sar][Sar][Sar][Sar]K(Fluorescein) (linker 2-10-14 via TATB) [BCY15772]"
measure_name = "pKd"
observed_result = 4.00

[[record]]
binder = "ACSPDAHLGCISYCEHQE (linker 2-10-14 via TATB (inferred)) [BCY17119]"
measure_name = "pKd"
observed_result = 5.25

[[record]]
binder = "ACSPDAYLGC[Tle]SYCA (linker 2-10-14 via TATB) [BCY16966]"
measure_name = "pKd"
observed_result = 5.72

[[record]]
binder = "NWNCPXDAYLGCXSYC (3 Cys on TATB; core as printed CP[HyP]DAYLGC[tBuGly]SYC) [BCY18033]"
measure_name = "pKd"
observed_result = 6.23

